# Test system: MS2 coat protein
# EXPERIMENT DESCRIPTION: apparent KD of MS2 coat protein; designed switch direction (-1 OFF switch, 1 ON switch): 1; higher = weaker reporter binding
# CONDITION SET: Eterna round: R95; input ligand: microRNA oligo, concentration not stated
Use 1 when the recorded apparent KD of MS2 coat protein is no lower than 0.03 µM; use -1 when it is lower.

*Q* Could you verify whether the entry CUCAAAACAAGUUGCAGUGUUCGUCUUUCACAUGAGGAUCACCCAUGUAAUAGCCCAGUGGAAGCGCUCGGGCCACC [Ditixe] (puzzle: Sensor for hsa-mir-208a) shows apparent KD of MS2 coat protein of no less than 0.03 µM?
*A* -1

*Q* Could you verify whether the entry AGUCCAGGCUGACCUGGACAAAAGCAUGUACAUGAGGAUCACCCAUGUCAUGUACAAGCUUUUUGCUCGUCUUAAAA [Mat - hsa-mir-208a - Mod of JL - D16] (puzzle: Sensor for hsa-mir-208a) shows apparent KD of MS2 coat protein of no less than 0.03 µM?
*A* -1

*Q* Could you verify whether the entry AGUCCAGCCUGAGCUGGACAAAAGCAUGUACAUGAGGAUCACCCAUGUUCAUGUACUAGCUUUUUGCUCGUCUUGCC [salish99_208a_r3_108x] (puzzle: Sensor for hsa-mir-208a) shows apparent KD of MS2 coat protein of no less than 0.03 µM?
*A* -1

*Q* Could you verify whether the entry CGAUCAUACUCAGGACGGAGAGUAGAGGAACAUGAGGAUCACCCAUGUAUGAGCUUUUUGCUCGUCAUGAACAGGAG [JR_SHM208a_Sub010] (puzzle: Sensor for hsa-mir-208a) shows apparent KD of MS2 coat protein of no less than 0.03 µM?
*A* 1

*Q* Could you verify whether the entry CGUCCGGCCUGUGCUGGCCGGAAGCAUGUACAUGAGGAUCACCCAUGUUCAUGUGCAGGCUUUUUGCUCGUCUUGUG [salish99_mir208a_r3_006] (puzzle: Sensor for hsa-mir-208a) shows apparent KD of MS2 coat protein of no less than 0.03 µM?
*A* -1

*Q* Could you verify whether the entry CGACGCUGUCGAGAGGAUAUGCGGUGAUGGACAUGAGGAUCACCCAUGUUAGCGAUAGCAUUACGGUAGAAGGCUCUACAGCUGU [Soteed Omei mod 5] (puzzle: Same State 2) shows apparent KD of MS2 coat protein of no less than 0.03 µM?
*A* 1

*Q* Could you verify whether the entry AGUAGGGCGUCAUAGGAUAUCCGGAAGAGUACAUGAGGAUCACCCAUGUCACUCCGCCAUGCAGAGGAGAAGGGUGGUGUUGUAC [Biedzage] (puzzle: Same State 2) shows apparent KD of MS2 coat protein of no less than 0.03 µM?
*A* 1
